Target: T1, extracellular domain of human KLB expressed with C-terminal HA and hexahistidine tags (human, UniProt Q86Z14 1-996)
T1 construct: also called hKLB-HA-6His; hKLB-HA-6his
T1 sequence: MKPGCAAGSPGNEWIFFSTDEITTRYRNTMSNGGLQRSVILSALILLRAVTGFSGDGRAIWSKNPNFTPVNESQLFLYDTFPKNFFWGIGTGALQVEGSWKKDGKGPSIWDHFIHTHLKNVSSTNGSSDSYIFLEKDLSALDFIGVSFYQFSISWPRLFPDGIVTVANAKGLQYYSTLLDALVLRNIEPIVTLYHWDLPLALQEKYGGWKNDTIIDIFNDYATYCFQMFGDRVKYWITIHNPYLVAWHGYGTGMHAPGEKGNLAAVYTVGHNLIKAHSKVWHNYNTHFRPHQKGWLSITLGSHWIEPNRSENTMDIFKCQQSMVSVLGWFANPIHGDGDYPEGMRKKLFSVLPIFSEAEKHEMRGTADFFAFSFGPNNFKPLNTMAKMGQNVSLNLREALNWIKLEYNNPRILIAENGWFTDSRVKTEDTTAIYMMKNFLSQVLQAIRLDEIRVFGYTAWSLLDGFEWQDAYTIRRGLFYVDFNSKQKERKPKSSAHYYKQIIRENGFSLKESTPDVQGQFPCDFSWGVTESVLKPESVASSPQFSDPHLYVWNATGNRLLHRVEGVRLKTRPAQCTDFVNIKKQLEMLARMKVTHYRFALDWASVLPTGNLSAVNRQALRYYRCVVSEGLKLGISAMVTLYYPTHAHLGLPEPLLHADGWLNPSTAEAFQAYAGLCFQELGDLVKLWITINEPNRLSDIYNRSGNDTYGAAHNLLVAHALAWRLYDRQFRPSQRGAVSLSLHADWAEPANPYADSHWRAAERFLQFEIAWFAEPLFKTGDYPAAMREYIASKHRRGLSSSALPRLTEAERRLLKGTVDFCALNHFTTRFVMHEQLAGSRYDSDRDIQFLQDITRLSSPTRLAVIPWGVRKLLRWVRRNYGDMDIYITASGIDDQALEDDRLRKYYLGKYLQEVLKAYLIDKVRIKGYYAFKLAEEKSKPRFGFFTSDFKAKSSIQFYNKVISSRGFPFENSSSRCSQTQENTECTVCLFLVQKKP
Test: SPR, mAb captured, 25 C
I'd appreciate it if you could supply t1/2 values for the items below.
Write the value in h as a bare number.

Sample H4H8878P (antibody, V domains shown, human IgG4 Fc (H4H prefix)) VH: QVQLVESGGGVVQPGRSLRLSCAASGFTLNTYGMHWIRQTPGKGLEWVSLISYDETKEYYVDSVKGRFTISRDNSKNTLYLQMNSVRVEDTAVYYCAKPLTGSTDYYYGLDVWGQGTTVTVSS VL: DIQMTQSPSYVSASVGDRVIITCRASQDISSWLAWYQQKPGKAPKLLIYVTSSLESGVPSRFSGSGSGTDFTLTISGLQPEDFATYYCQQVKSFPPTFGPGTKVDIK — what was its t1/2?
0.905

Sample H2aM8092N (antibody, V domains shown, mouse IgG2 Fc (H2aM prefix); also called H2M8092N) VH: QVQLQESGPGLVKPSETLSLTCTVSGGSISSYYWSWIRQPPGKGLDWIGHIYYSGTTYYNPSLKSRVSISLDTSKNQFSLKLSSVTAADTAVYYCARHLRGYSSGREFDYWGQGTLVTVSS VL: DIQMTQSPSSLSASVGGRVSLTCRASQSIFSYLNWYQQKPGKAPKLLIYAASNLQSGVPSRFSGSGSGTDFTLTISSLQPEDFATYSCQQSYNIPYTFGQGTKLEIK — what was its t1/2?
3.46
